Entry source: patent US20160304858A1

Overview of recorded Kd for various binders
- measured.target: HIV broadly neutralizing antibody 2G12
- test.summary: radiolabelled glycopeptide with 2G12 in solution, protein G bead capture, scintillation counting
Primed or numbered codes have the meaning given here. Where no end group is shown, it is not given here. [ ]: non-standard residue; d: D form. The star is where a group is joined. Hpra′ = its azide, alkyne or alkene has reacted where a group follows in round brackets; Man9″ = Man9 glycan attached to Hpg by CuAAC click with Man9-azide; Man9(3) = Man9-azide click-glycosylated onto Hpg; For = O=C*
observable: Kd (nM)

binder: glycopeptide 10F12 (Fixed library, round 10) (not fully specified (bridges); cysteine pairing not given here) peptide: For-[Hpra′](Man9″)CYVTVIPA[Hpra′](Man9″)N[Hpra′](Man9″)PEARLGIVCH[Hpra′](Man9″)PGIRRGKALYGSGSLGHHHHHHRDYKDDDDK
unit.text: nM
endpoint.value: 0.77
--
binder: glycopeptide 10F5 (Fixed library, round 10) (cysteine pairing not given here) peptide: For-[Hpra′](Man9(3))SPHLPVLLCK[Hpra′](Man9(3))VLNDGRRIVQ[Hpra′](Man9(3))SCELP[Hpra′](Man9(3))VRRSGSGSLGHHHHHHRDYKDDDDK
unit.text: nM
endpoint.value: 0.97
--
binder: glycopeptide 10V8 (Variable library, round 10) (peptide) peptide: For-[Hpra′](Man9(3))VLPTIISTNVNPFR[Hpra′](Man9(3))LSIPTYTYL[Hpra′](Man9(3))PITWGEIGSGSLGHHHHHHRDYKDDDDK
unit.text: nM
endpoint.value: 4.6
--
binder: glycopeptide 10F2 (Fixed library, round 10), ribosomally translated (peptide) peptide: For-[Hpra′](Man9″)HPYNTSRTSA[Hpra′](Man9″)[Hpra′](Man9″)AALK[Hpra′](Man9″)QVTD[Hpra′](Man9″)YALALFHRILGSGSLGHHHHHHRDYKDDDDK
unit.text: nM
endpoint.value: 0.6
--
binder: glycopeptide 10F3 -C15S (peptide) peptide: For-[Hpra′](Man9)DTLHLKQIGG[Hpra′](Man9)PNSITQQDVR[Hpra′](Man9)TSIPYTYTWPGSGSLGHHHHHHRDYKDDDDK
unit.text: nM
endpoint.value: 2.91
--
binder: glycopeptide 10F6 (Fixed library, round 10) (peptide) peptide: For-[Hpra′](Man9(3))L[Hpra′](Man9(3))FIRIYPTR[Hpra′](Man9(3))QYVYHAPLLT[Hpra′](Man9(3))VR[Hpra′](Man9(3))SPTGPLIGSGSLGHHHHHHRDYKDDDDK
unit.text: nM
endpoint.value: 0.54
--
binder: glycopeptide 10V9 (Variable library, round 10) (peptide) peptide: For-[Hpra′](Man9(3))TSIPYTYLNRSLWTNYRVNSWS[Hpra′](Man9(3))SKNVNV[Hpra′](Man9(3))PLGSGSLGHHHHHHRDYKDDDDK
unit.text: nM
endpoint.value: 3.9
--
binder: For-[Hpra′](Man9(3))PNCITQQDVR[Hpra′](Man9(3))TSIPYTYTWPGSGSLGHHHHHHRDYKDDDDK [glycopeptide 10F3-Δ11]
unit.text: nM
endpoint.value: 25
